quantity_kind: melting point

Solved entries (count: 5):
{"molecule": "NS(=O)(=O)c1ccc(NCC(CC(=O)NN=Cc2ccc(F)cc2)C(=O)NN=Cc2ccc(F)cc2)c(Cl)c1 (stereo not shown) [Compound 13b]", "melting point": "207 to 208 °C"}
{"molecule": "NS(=O)(=O)c1ccc(NCC(CC(=O)NN=Cc2ccccc2O)C(=O)NN=Cc2ccccc2O)cc1 (stereo not shown)", "melting point": "177 to 178 °C"}
{"molecule": "Cc1csc(N(CCC(=O)NN)c2ccc(S(N)(=O)=O)cc2)n1", "melting point": "167 to 168 °C"}
{"molecule": "CC(=NNC(=O)CC(CNc1ccc(S(N)(=O)=O)cc1Cl)C(=O)NN=C(C)c1ccccc1)c1ccccc1 (stereo not shown)", "melting point": "158 to 159 °C"}
{"molecule": "CCOC(=O)c1sc(N(CCC(=O)OC)c2ccc(S(N)(=O)=O)cc2)nc1C", "melting point": "140 to 141 °C"}

Query string: Any idea what its melting point is? The molecule is COc1ccc(C=NNC(=O)CC(CNc2ccc(S(N)(=O)=O)cc2Cl)C(=O)NN=Cc2ccc(OC)cc2)cc1 (stereo not shown) [Compound 14b]
Result string: 198 to 199 °C

Query string: Reported melting point, molecule NS(=O)(=O)c1ccc(NCC(Cc2n[nH]c(=S)n2-c2ccccc2)c2n[nH]c(=S)n2-c2ccccc2)c(Cl)c1 (stereo not shown) [Compound 25b] : ____
Result string: 175 to 176 °C

----------
# measurement_target: CAII (Homo sapiens);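 note: recombinant human CAII, thermal shift with ANS dye fluorescence, Kd_obs from fitting melting temperature versus ligand concentration, intrinsic values corrected for deprotonated sulfonamide and Zn-bound water fractions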
# Construct: made in house; host or cells: E. coli
# assay_text: biochemical
# Assay type: binding
# condition_summary: FTSA, pH 7.0, 37 °C; read-out: Observed Dissociation Constant (Kd_obs), CAII
pKd: −log10 of the molar value.
quantity_kind: pKd

The examples below pair each entry with its known result.
{"compound": "CC(=NNC(=O)CC(CNc1ccc(S(N)(=O)=O)cc1)C(=O)NN=C(C)c1ccccc1)c1ccccc1 (stereo not drawn)", "pKd": 5.89}
{"compound": "NS(=O)(=O)c1ccc(NCC(CC(=O)NN=Cc2ccccc2Cl)C(=O)NN=Cc2ccccc2Cl)c(Cl)c1 (stereo not drawn) [Compound 10b]", "pKd": 6.48}
{"compound": "Cn1c(CC(CNc2ccc(S(N)(=O)=O)cc2)c2n[nH]c(=S)n2C)n[nH]c1=S (stereo not drawn) [Compound 24a]", "pKd": 5.17}

I = NS(=O)(=O)c1ccc(NCC(Cc2n[nH]c(=S)n2-c2ccccc2)c2n[nH]c(=S)n2-c2ccccc2)cc1 (stereo not drawn) [Compound 25a]
II = NS(=O)(=O)c1ccc(NCC(CC(=O)NN=Cc2ccccc2O)C(=O)NN=Cc2ccccc2O)cc1 (stereo not drawn)
Query string: Hi there, can you help? I need to know whether I or II has lower measured pKd. Reply briefly: the label of your chosen item.
Result string: I
(I: 5.48, II: 5.70)

I = NS(=O)(=O)c1ccc(NCC(CC(=O)NN=Cc2ccc(Cl)cc2)C(=O)NN=Cc2ccc(Cl)cc2)cc1 (stereo not drawn) [Compound 12a]
II = NNC(=O)CC(CNc1ccc(S(N)(=O)=O)cc1Cl)C(=O)NN (stereo not drawn)
Query string: From the recorded data, which exceeds the other in pKd: I or II ? Identify your pick by its label.
Result string: II

1 = CCOC(=O)c1sc(N(CCC(=O)NN=Cc2ccccc2)c2ccc(S(N)(=O)=O)cc2)nc1C
2 = NS(=O)(=O)c1ccc(NCC(CC(=O)NN=Cc2ccc([N+](=O)[O-])cc2)C(=O)NN=Cc2ccc([N+](=O)[O-])cc2)c(Cl)c1 (stereo not drawn) [Compound 17b]
3 = NS(=O)(=O)c1ccc(NCC(CC(=O)NN=Cc2ccc([N+](=O)[O-])cc2)C(=O)NN=Cc2ccc([N+](=O)[O-])cc2)cc1 (stereo not drawn) [Compound 17a]
4 = NS(=O)(=O)c1ccc(NCC(CC(=O)NNC(=S)Nc2ccccc2)C(=O)NNC(=S)Nc2ccccc2)c(Cl)c1 (stereo not drawn) [Compound 23b]
Query string: Thanks in advance: please rank these 4 entries by pKd, highest to lowest. Could you list the labels in the order requested?
Result string: 4, 1, 2, 3
